Test system: BT-549 breast
Assay: NCI-60 one-dose screen, 48 h
Conditions: 10 µM
Description: Growth inhibition of the BT-549 human tumor cell line is measured as a screen for anti-cancer activity. Cells are grown in 96 well plates and exposed to the test compound for 48 hours. Compounds are tested at a single concentration, which is 10^-5 M for most compounds. The reported endpoint is percent growth (GI% or GIPRCNT), where numbers from 0 - 100% represent growth inhibition, and numbers from -100% - 0 represent cell death. For example, a value of 40 represents 60% growth inhibition. […]
This is part of a sample that, as a whole, favours compounds with a hit. Of some 83,000 tested, about 20% had one in any assay. Activity calls are given as the source filed them. Rule for the calls: active = growth percent below 10; inactive = the rest.
# output must be one of label 1 = active, label 0 = inactive

Examples with answers:
CNC(=O)c1cc(-c2ccc(NC(=O)Nc3ccc(C)cc3)cc2)nc2cccnc12 : label 0
COc1ccc2nc(Nc3cccc(NC(=O)c4ccc(CN5CCN(C)CC5)c(C(F)(F)F)c4)c3)ccc2c1 : label 1
CNC(=O)c1cccc(N2CCc3c2ccc(NC(=O)Nc2ccc(N4CCN(C)CC4)c(C(F)(F)F)c2)c3F)c1 : label 0
O=C(c1ccc(Cl)cc1)C1[C@H](c2ccc(Br)cc2)[C@@H](c2ccccc2)NC12C(=O)Nc1ccccc12 (some centres undefined) : label 1
CNCc1cccc2c1OCCCCCC[C@@](C)(O)CC1(CC1)S(=O)(=O)c1ccc(cc1)-c1cnc(N)c(n1)C(=O)N2 : label 1
Cc1ccc(/C=C/C(=O)c2ccc(S(=O)(=O)NCCNc3nc(Nc4ccc(F)cc4)nc(N(C)C)n3)cc2)cc1 : label 0
COc1ccc(C(=O)CSc2nnc(-c3c[nH]c4ccccc34)n2-c2ccccc2)cc1 : label 0
CS(=O)(=O)Nc1ccc(-c2ccc3c(c2)ncn3-c2ccc(NC(=O)Nc3ccc(Br)cc3)cc2)cc1 : label 1

Name the outcome recorded for O=C(N=Nc1c(O)[nH]c2ccc(Br)cc12)c1ccc2nc(-c3ccccc3)[nH]c2c1 in the assay. label 1

Name the outcome recorded for COc1ccc2[nH]cc(/C=N/Nc3ccc(Br)cn3)c2c1 in the assay. label 1

Name the outcome recorded for COc1ccc(Nc2nc(N)n(Cc3cccc(Br)c3)n2)cc1 in the assay. label 1

Name the outcome recorded for CC(=C(c1ccc(OCCCN(C)C)cc1)c1ccc(OCCCN(C)C)cc1)c1ccccc1 in the assay. label 1

Name the outcome recorded for Brc1ccc(N/N=C/c2c[nH]c3ccccc23)nc1 in the assay. label 1

Name the outcome recorded for C#Cc1ccc(S(=O)(=O)Nc2cccc(-c3csc(NC(C)=O)n3)c2)cc1 in the assay. label 0

Name the outcome recorded for COc1ccc(CN2[C@@H](C(=O)NCc3ccc(C(=O)NO)cc3)Cc3c([nH]c4ccccc34)[C@@H]2C)cc1 in the assay. label 0

Name the outcome recorded for COc1ccc2[nH]c(=O)c(CSc3cccc(N)c3)cc2c1 in the assay. label 0

Name the outcome recorded for CCCn1c(=O)c2[nH]c(-c3ccc(OCc4nc5ccc(C)cc5[nH]4)cc3)nc2n(CCC)c1=O in the assay. label 0

Name the outcome recorded for O=c1c2ccccc2nc(COc2ccccc2)n1/N=C/c1ccc(N2CCOCC2)cc1 in the assay. label 0

Name the outcome recorded for O=c1[nH]c2ccccc2cc1CSc1ccc(Nc2nccc(-c3ccc(C(F)(F)F)cc3)n2)cc1 in the assay. label 0
